The origin of these recorded values is PubChem BioAssay AID2060354.

Tested on: 519858-162-T-J1-PDC spheroid growth inhibition;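 note: each agent tested in combination with TAK-243 or ipatasertib; spheroids exposed to drugs for 7 days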
Procedure Summary: Anticancer human tumor 519858-162-T-J1-PDC patient-derived colon adenocarcinoma cell line growth inhibition [TAK]
Experimental Parameters: second compound 9.49 µM; first compound 0.01 µM; stronger effect = lower value; spheroids with HUVEC and MSC
Mark Y for viability, T/C under 90%, N if at or over.

Previously resolved entries follow.
compound="COC1CC2CCC(C)C(O)(O2)C(=O)C(=O)N2CCCCC2C(=O)OC(C(C)CC2CCC(OCCO)C(OC)C2)CC(=O)C(C)C=C(C)C(O)C(OC)C(=O)C(C)CC(C)C=CC=CC=C1C (stereo not given) + CC(C)NCC(C(=O)N1CCN(c2ncnc3c2C(C)CC3O)CC1)c1ccc(Cl)cc1" classification=N
compound="CC(C)CC(NC(=O)C(Cc1ccccc1)NC(=O)c1cnccn1)B(O)O (stereo not given) + CC(C)NCC(C(=O)N1CCN(c2ncnc3c2C(C)CC3O)CC1)c1ccc(Cl)cc1" classification=Y
compound="CC(C)n1nc(-c2ccc3oc(N)nc3c2)c2c(N)ncnc21 + CC(C)NCC(C(=O)N1CCN(c2ncnc3c2C(C)CC3O)CC1)c1ccc(Cl)cc1" classification=N
compound="COc1c(OCCCN2CCOCC2)ccc2c3n(c(=NC(=O)c4cnc(N)nc4)nc12)CCN3 + CC(C)NCC(C(=O)N1CCN(c2ncnc3c2C(C)CC3O)CC1)c1ccc(Cl)cc1" classification=Y

Consider the record given below.
Prompt: Please determine if CC(C)CC(NC(=O)CNC(=O)c1cc(Cl)ccc1Cl)B1OC(=O)CC(CC(=O)O)(C(=O)O)O1 (stereo not given) + CC(C)NCC(C(=O)N1CCN(c2ncnc3c2C(C)CC3O)CC1)c1ccc(Cl)cc1 is below 90% in terms of viability, T/C.
Response: Y
